assay: Cytotoxicity against human A549 cells assessed as reduction in cell viability after 48 hrs by MTT assay; format: functional, cell-based; conditions: A549, 48 h
Assign IC50 to each entry below.
# unit: µM | format: bare number

Entry CC(C)n1c(/C=C2/C(=O)Nc3ccc(Br)cc32)nc2ccccc21 has what IC50?
8.63

// IC50 lookup, key: Cc1ccc2c(c1)/C(=C\c1nc3ccccc3n1C(C)C)C(=O)N2
23

Dear colleague, I am looking for the recorded IC50 of the following compound: CC(C)n1c(/C=C2/C(=O)Nc3ccccc32)nc2ccccc21
35.3

Fill in: IC50 of CC(C)n1c(/C=C2/C(=O)Nc3ccc(Cl)cc32)nc2ccccc21 is ___
35.2

Any idea what IC50 was measured for CCN(CC)CCNC(=O)c1c(C)[nH]c(/C=C2\C(=O)Nc3ccc(F)cc32)c1C ?
14.4

====

assay: Selectivity ratio of IC50 for human MCF10A cells to IC50 for human PC3 cells; assay type: ADME, cell-based, MCF-10A; settings: MCF10A cells versus PC3 cells, read-out: Ratio IC50
experimental.readout: selectivity ratio

Quick check: selectivity ratio of CC(C)n1c(/C=C2/C(=O)Nc3ccc(Cl)cc32)nc2ccccc21 ?
2 to 3

====

experiment: Selectivity ratio of IC50 for human MCF10A cells to IC50 for human A549 cells; format: ADME, cell-based; details: MCF10A cells versus A549 cells, read-out: Ratio IC50
Exercise: state measured selectivity ratio for each of the molecules provided.

Using the record for CC(C)n1c(/C=C2/C(=O)Nc3ccc(Cl)cc32)nc2ccccc21 , report its selectivity ratio.
2 to 3

Consider the molecule shown here: CC(C)n1c(/C=C2/C(=O)Nc3ccc(Br)cc32)nc2ccccc21 What is its recorded selectivity ratio?
6.5

====

assay: Selectivity ratio of IC50 for human MCF10A cells to IC50 for human MCF7 cells; format: ADME, cell-based, MCF-10A; conditions: MCF10A cells versus MCF7 cells, read-out: Ratio IC50
experimental.readout: selectivity ratio

// query selectivity ratio value for entry CC(C)n1c(/C=C2/C(=O)Nc3ccc(Cl)cc32)nc2ccccc21
2 to 3

====

Give pIC50 for every item shown.
experiment: Cytotoxicity against human MDA-MB-231 cells assessed as reduction in cell viability after 48 hrs by MTT assay; format: functional, cell-based; details: MDA-MB-231, 48 h
Please treat pIC50 as minus the base-10 logarithm of the molar concentration.

Look up pIC50 for this compound: CC(C)n1c(/C=C2/C(=O)Nc3ccccc32)nc2ccccc21
4.52

Requested field: pIC50. Item: Cn1c(/C=C2/C(=O)Nc3ccc(Cl)cc32)nc2ccccc21
4.43

Record request: pIC50 value, item Cn1c(/C=C2/C(=O)Nc3ccc(F)cc32)nc2ccccc21
4.66

Entry Cc1ccc2c(c1)/C(=C\c1nc3ccccc3n1C(C)C)C(=O)N2 : reported pIC50 = ?
5.14

Any idea what its pIC50 is? The compound is CCN(CC)CCNC(=O)c1c(C)[nH]c(/C=C2\C(=O)Nc3ccc(F)cc32)c1C
5.13

So what does the record say about pIC50 for CCn1c(/C=C2/C(=O)Nc3ccc(Cl)cc32)nc2ccccc21 ?
4.43

Need pIC50 of CC(C)n1c(/C=C2/C(=O)Nc3ccc(Cl)cc32)nc2ccccc21 , thanks.
4.60

So what does the record say about pIC50 for CCn1c(/C=C2/C(=O)Nc3ccc(C)cc32)nc2ccccc21 ?
4.39

Which pIC50 value is on record for CC(C)n1c(/C=C2/C(=O)Nc3ccc(F)cc32)nc2ccccc21 ?
4.64

What value of pIC50 has been recorded for this entry: CC(C)n1c(/C=C2/C(=O)Nc3ccc(Br)cc32)nc2ccccc21
5.49
